Tested on: Fer (mouse);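 also: 11-residue human phosphosite peptides and single-mutation variants displayed on the E. coli surface, counted by deep sequencing, each peptide's frequency after selection divided by its frequency in the unselected input library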;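 also: frequency after pTyr selection over input frequency; kinase dosed for 20-30% of maximal phosphorylation in three min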
procedureText: phosphorylation enrichment, bacterial display (enrichment ratio); higher = better substrate or ligand; peptides without Tyr show the background
measuredMetric: phosphorylation enrichment
Answers are plain numbers.

Worked set:
residueSequence | phosphorylation enrichment
PPLMLYNPTTF [EGFR_Y270_YF] | 1.25
SVNIRYLLFPS [SERAC1_Y548] | 0.469
QNTGDYYDLYG [PTPN11_Y62] | 1.31

Please go through the list and note phosphorylation enrichment for each sequence.
1. AAVNGYAFGGG [ECHS1_Y137]
2. PSQRRNVFFFS [PTEN_Y174_Y174N_YF]
3. NFFEFYVDDPL [GCHFR_Y48_P53L_YF]
4. EQSGSYIWVLA [DLG1_Y895_P899L]
5. SVVVPYEPPDV [TP53_Y220_E224D]
6. NNIDFYKKTTN [FGFR2_Y657_YF]
7. PTYKHYANSTQ [SLC12A3_Y70_E68K]
8. IAAEYYDNLPH [DEGS1_Y284]

[0.473, 0.493, 0.428, 0.526, 0.456, 0.388, 0.448, 0.874]

The measurements presented in this section are drawn from the supplement of paper PMC10065799.
